Entries and their measured half-life follow.
- METHOD NOTES: Pharmacokinetic evaluation in rats
- Type: in vivo
- ASSAY CONDITIONS: Sprague-Dawley, rat, serum; male SD rats, single oral dose 3 mg/kg, in 30% PEG400; read-out: half-life (T1/2) (converted)
METRIC: half-life (h)

INSERT INTO assay_data (compound, metric, value) VALUES
  ('CNC(=O)c1cc(Oc2ccc(NC(=O)Nc3ccc(Cl)c(C(F)(F)F)c3)cc2)ccn1 [CM4306, reference compound]', 'half-life', 8.6),
  ('[2H]C([2H])([2H])NC(=O)c1cc(Oc2ccc(NC(=O)Nc3ccc(Cl)c(C(F)(F)F)c3)cc2)ccn1', 'half-life', 11.3);
